This collection of values is drawn from patent US20240415814A1.

Test: Pharmacokinetics according to renal function of patients
Type: in vivo, human
Conditions: both sexes, human, plasma, oral, 200 mg, mild impairment, 200 mg once daily, Day 7, plasma; read-out: Cmax, ss, geometric LS mean

compound: CC(C)n1cc(C#N)c2cc(-n3cc(C(=O)O)cn3)ccc21 [Example 1]
unit-descriptor: ng/mL
Cmax: 7460

----------
Experiment: Pharmacokinetics according to renal function of patients
Type: in vivo, human
Conditions: both sexes, human, plasma, oral, 200 mg, severe impairment, 200 mg once daily, Day 7, plasma; read-out: AUCtau, geometric LS mean
Procedure: PK and PD of the compound of Example 1 were assessed under patient groups with various degrees of renal function. […]
parameter-measured: AUC

smi: CC(C)n1cc(C#N)c2cc(-n3cc(C(=O)O)cn3)ccc21
result: 38900 ng·h/mL

----------
Test: Pharmacokinetics according to renal function of patients
Format: in vivo, human
Details: both sexes, human, plasma, oral, 200 mg, severe impairment, 200 mg once daily, Day 7, plasma; read-out: AUC0-t (AUC0-48 h), geometric LS mean
parameter-measured: AUC(0-t) (ng·h/mL)

smi: CC(C)n1cc(C#N)c2cc(-n3cc(C(=O)O)cn3)ccc21
parameter-measured: AUC(0-t)
readout-number: 34300
